- target_of_assay: Protein RecA (Mycobacterium tuberculosis)
- Sequence (P9WHJ3 whole entry): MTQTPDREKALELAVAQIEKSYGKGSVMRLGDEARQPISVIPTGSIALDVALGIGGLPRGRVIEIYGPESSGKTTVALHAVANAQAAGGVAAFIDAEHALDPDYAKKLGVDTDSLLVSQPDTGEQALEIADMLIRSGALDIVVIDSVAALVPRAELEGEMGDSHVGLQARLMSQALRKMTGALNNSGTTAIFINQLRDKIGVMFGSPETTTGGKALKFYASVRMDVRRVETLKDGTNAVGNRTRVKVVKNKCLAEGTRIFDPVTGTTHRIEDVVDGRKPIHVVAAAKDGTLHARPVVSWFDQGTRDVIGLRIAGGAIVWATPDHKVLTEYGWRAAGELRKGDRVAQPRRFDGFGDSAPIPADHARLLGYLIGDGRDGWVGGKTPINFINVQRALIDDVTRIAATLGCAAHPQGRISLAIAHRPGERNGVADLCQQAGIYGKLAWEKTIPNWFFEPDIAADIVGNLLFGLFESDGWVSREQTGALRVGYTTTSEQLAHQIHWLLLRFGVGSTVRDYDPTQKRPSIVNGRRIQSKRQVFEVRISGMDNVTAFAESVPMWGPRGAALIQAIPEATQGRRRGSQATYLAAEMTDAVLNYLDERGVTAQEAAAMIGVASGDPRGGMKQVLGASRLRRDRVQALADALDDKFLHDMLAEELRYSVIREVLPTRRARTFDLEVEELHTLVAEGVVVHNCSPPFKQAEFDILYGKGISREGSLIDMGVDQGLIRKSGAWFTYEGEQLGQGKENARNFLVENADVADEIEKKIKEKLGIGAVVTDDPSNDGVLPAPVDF
- experiment_description: Fluorescence Cell-Free Homogeneous Dose Retest to Identify Inhibitors of RecA-Intein Splicing Activity. [Related pubchem assays (depositor defined):AID2097, AID2223, AID489010, AID492950]
- Format: functional
Calls of active or inactive are those of the source.
A correct response names exactly one class from True (active), False (inactive)

[ask] Assay result, entry `O=[N+]([O-])c1cc([N+](=O)[O-])c2c(Nc3ccccc3)n(-c3ccccc3)[n+]([O-])c2c1` — outcome?
[reply] True

[ask] Now consider N=c1c2c(ncn1Cc1ccco1)Oc1ccc3ccccc3c1C2c1ccccc1 (centres undefined) and answer again.
[reply] True

[ask] Now consider `O=C(Nc1ccccc1)c1nnsc1S(=O)(=O)c1ccc(Cl)cc1` and answer again.
[reply] True

[ask] Now consider `COc1ccc(-c2cc(C#N)nc(Cl)n2)cc1` and answer again.
[reply] True

[ask] Now consider `COc1ccc2c(c1)C(=C(C#N)C#N)C(=O)N2CCc1ccccc1` and answer again.
[reply] True

[ask] Now consider CN1CCc2cc3c(c4c2C1Cc1ccccc1-4)OCO3 (centres undefined) and answer again.
[reply] True

[ask] Now consider CCOc1ccccc1C1C(C#N)=C(N)Oc2[nH]nc(CC)c21 (centres undefined) and answer again.
[reply] True

[ask] Now consider `CCO/C=C1/C(=O)N(Cc2ccccc2)C(=O)c2ccccc21` and answer again.
[reply] False

[ask] Now consider `O=C(N/N=C/c1coc2ccc(Cl)cc2c1=O)c1ccc(O)cc1` and answer again.
[reply] True

---

- target_of_assay: UniProt:P33261
- Sequence (P33261 whole entry): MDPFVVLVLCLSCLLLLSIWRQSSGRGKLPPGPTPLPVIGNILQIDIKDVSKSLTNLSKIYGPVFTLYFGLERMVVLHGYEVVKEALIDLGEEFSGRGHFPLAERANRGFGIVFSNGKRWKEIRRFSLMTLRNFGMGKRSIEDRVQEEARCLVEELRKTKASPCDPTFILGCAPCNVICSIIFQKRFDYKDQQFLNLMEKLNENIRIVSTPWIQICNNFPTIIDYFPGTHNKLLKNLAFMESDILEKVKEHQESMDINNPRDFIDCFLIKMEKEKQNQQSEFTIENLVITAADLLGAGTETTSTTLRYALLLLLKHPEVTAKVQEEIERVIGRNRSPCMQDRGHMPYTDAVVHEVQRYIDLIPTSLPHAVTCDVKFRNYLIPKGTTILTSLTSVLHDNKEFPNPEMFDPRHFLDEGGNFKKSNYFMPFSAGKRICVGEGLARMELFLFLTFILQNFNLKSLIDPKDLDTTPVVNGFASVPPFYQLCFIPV
- experiment_description: Cytochrome panel assay with activity outcomes. Panel member name: p450-cyp2c19 Compounds with AC50 equal or less than 10 uM are considered active
- Format: functional
- condition_notes: read-out: AC50
measured_parameter: AC50

// solved cases for AC50 follow
- compound: "Cc1ccc(C)c(CN2C(=O)C3CCCN3c3ccc(S(=O)(=O)N4CCOCC4)cc32)c1 (stereo not given)"
  AC50: "6.31 µM (inconclusive)"
- compound: "C[C@@H]1[C@H]2C=C[C@@H]1[C@@H](c1c3ccc(=O)c(O)c-3oc3c(O)c(O)ccc13)[C@@H]2C(=O)O"
  AC50: "3.98 µM (inconclusive)"

Batch of 5 compounds: report AC50 for each.
1. Cc1ccc2[nH]c(SCC(=O)Nc3nnc(SCC(N)=O)s3)nc2c1
2. COCCn1c(=O)c(C)nc2cnc(Oc3cccc(Cl)c3)nc21
3. O=C(Nc1ccc(Cl)cc1)N1CCc2[nH]c3ccccc3c2C1
4. COc1ccc(-n2c(=O)c(C)nc3cnc(OC)nc32)cc1
5. O=C(/C=C/c1ccccc1)N/C(=C/c1ccccc1)C(=O)Nc1ccccc1O

[reply]
["22.4 µM (inconclusive)", "20 µM (inconclusive)", "2 µM (inconclusive)", "39.8 µM (inconclusive)", "17.8 µM (inconclusive)"]

Values from ChEMBL document CHEMBL1201862
